# Assay Method Text: qHTS drug screen for cell cycle checkpoint inhibitors in PARPi-resistant BRCA-mutant ovarian cancer cell lines. (AID 1963452)
# Condition Parameters: PEO1/OlaR viability, CellTiter-Glo luminescence, 96 h; stronger effect = lower value
# Source text: Women's Malignancies Branch, Center for Cancer Research (CCR), National Cancer Institute (NCI), National Institutes of Health (NIH), Bethesda, MD Poly (ADP-ribose) polymerase inhibitors (PARPis) have changed the treatment paradigm in breast cancer gene (BRCA) - mutant high-grade serous ovarian carcinoma (HGSC). […] 6; Detection; Luminescence, PHERAstar (BMG Labtech) plate reader. […] 6. Luminescence readings were taken using PHERAstar (BMG Labtech). […]
Doc: threshold -0.5 (exclusive). Items with Z-AUC beneath it return Yes; others return No.

Use these answered entries as a reference point.
{"columns": ["Compound", "Assigned Category"],
 "data": [
  ["O=C(Nc1ccc(-c2ccnc(Nc3ccc(N4CCOCC4)cc3)n2)cc1)[C@@H]1CCCN1", "No"],
  ["CC[C@@]1([C@@H]2O[C@@H]([C@H]3O[C@@](O)(CO)[C@H](C)C[C@@H]3C)C[C@@H]2C)CC[C@H]([C@]2(C)CCC3(C[C@H](O)[C@@H](C)[C@@H]([C@@H](C)[C@@H](OC)[C@H](C)C(=O)O)O3)O2)O1 (some centres not stated)", "Yes"]
]}

Incoming: Report whether reported Z-AUC is lower than -0.5 (strictly) for NC(=O)c1cccc2[nH]c(-c3ccc([C@@H]4CCCN4)cc3F)nc12
Outgoing: Yes

Incoming: Report whether reported Z-AUC is lower than -0.5 (strictly) for O=C(/C=C/c1ccc(Cl)cc1)N1CCC2(CC1)CN(Cc1ccc(Cl)c(Cl)c1)C(=O)O2
Outgoing: No

Incoming: Report whether reported Z-AUC is lower than -0.5 (strictly) for O=C1CCC[C@@H]2[C@@H]3CCC[N@+]4([O-])CCC[C@H](CN12)[C@H]34
Outgoing: No

Incoming: Report whether reported Z-AUC is lower than -0.5 (strictly) for CONC(=O)c1ccccc1Nc1cc(Nc2cc(C)nn2C(C)C)ncc1Cl
Outgoing: No

Where do these numbers come from? They come from PubChem BioAssay (NCATS).
